target: Mrp3 (ATP-binding cassette sub-family C member 3, ABCC3) (Rattus norvegicus, UniProt O88563); assay: TP_TRANSPORTER: inhibition of F-MTX uptake (F-MTX: 5.0 uM, E217betaG: 75.0 uM) in membrane vesicles from Mrp3-Sf9 cells; format: functional, cell membranes, Membrane vesicle; design: scale not given: the % may be the effect or the level left; conditions: membrane vesicles from Mrp3-expressing Sf9 cells, probe F-MTX; read-out: Activity
Sequence (O88563 whole entry): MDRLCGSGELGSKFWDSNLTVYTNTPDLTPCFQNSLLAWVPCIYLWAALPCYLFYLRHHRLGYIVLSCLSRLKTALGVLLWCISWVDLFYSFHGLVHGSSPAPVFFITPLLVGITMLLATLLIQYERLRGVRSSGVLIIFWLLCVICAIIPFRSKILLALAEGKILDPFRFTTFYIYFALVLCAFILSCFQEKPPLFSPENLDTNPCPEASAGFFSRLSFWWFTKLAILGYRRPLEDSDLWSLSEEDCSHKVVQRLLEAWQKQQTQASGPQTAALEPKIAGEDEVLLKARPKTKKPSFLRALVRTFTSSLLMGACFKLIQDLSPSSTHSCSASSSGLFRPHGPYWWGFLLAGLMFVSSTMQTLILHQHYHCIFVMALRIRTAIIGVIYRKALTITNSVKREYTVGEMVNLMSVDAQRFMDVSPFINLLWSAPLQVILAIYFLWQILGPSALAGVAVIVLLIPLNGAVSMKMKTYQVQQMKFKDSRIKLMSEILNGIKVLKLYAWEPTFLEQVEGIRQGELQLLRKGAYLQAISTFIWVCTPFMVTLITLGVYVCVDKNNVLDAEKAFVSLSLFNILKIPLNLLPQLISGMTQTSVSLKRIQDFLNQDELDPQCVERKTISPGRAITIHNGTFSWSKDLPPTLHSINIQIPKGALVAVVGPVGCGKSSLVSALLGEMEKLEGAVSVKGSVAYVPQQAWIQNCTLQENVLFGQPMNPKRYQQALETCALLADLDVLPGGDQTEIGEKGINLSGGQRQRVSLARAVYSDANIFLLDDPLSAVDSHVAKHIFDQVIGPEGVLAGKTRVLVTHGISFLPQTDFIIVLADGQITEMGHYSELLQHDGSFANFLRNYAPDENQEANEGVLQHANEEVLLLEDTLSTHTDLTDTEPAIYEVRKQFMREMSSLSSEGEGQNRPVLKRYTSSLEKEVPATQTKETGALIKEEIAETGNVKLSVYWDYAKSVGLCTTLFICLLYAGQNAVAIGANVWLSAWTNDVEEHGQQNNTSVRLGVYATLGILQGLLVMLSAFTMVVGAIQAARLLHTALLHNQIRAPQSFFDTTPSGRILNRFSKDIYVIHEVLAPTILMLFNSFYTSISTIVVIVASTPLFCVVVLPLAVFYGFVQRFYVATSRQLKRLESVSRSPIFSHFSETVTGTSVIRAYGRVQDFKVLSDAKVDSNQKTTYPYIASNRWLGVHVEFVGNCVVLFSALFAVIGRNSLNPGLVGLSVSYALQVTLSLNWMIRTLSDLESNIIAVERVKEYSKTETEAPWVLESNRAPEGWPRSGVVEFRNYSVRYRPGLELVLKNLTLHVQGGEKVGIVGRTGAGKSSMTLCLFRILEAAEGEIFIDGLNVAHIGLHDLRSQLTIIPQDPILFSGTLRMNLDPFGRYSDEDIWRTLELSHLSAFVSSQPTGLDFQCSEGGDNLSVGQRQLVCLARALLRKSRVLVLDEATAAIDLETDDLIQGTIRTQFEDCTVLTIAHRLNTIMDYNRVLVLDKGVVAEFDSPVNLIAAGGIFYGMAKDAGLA
measurement label: activity at 75 µM (%)
Give the number; % is assumed, so skip it.

Would you mind telling me what activity at 75 µM value was observed for C[C@]12CC[C@@H]3c4ccc(O)cc4CC[C@H]3[C@@H]1CC[C@@H]2O[C@@H]1O[C@H](C(=O)O)[C@@H](O)[C@H](O)[C@H]1O [ESTRADIOL 17B GLUCURONIDE] ? 19.2
